Reference source for all entries: patent US10064928B2

Target: HLA-A*02:01 (Homo sapiens, UniProt P04439, D140Y/D185E/D98H/E176V/E277Q/G131W/G231S/I119V/I121R/I166T/I218V/L300P/L318F/N151K/N90K/P208A/P217A/Q86G/Q94H/R138H/R169H/T345S)
Assay: MHC binding assay (UV-ligand exchange, beta2m ELISA)
Conditions: binding of HLA-class I restricted peptides to HLA-A*02:01, β2m ELISA
measured-attribute: Peptide Exchange (MHC class I binding score, peptide exchange yield)

>>> endpoint_result("365 (LISPLLLPV; listed as Homo sapiens) [compound 365]")
"“+++” (≥50 = +++)"
>>> endpoint_result("60 (FVLDHEDGLNL; listed as Homo sapiens) [compound 60]")
"“+++” (≥50 = +++)"
>>> endpoint_result("96 (ILIDKTSFV; listed as Homo sapiens) [compound 96]")
"“+++” (≥50 = +++)"
>>> endpoint_result("309 (ILYGTQFVL; listed as Homo sapiens) [compound 309]")
"“+++” (≥50 = +++)"
>>> endpoint_result("111 (KLWNVAAPLYL; listed as Homo sapiens) [compound 111]")
"“+++” (≥50 = +++)"
>>> endpoint_result("336 (YMAVTTQEV; listed as Homo sapiens) [compound 336]")
"“++++” (≥75% = ++++)"
>>> endpoint_result("227 (FLAEASVMTQL; listed as Homo sapiens) [compound 227]")
"“+++” (≥50 = +++)"
>>> endpoint_result("143 (QLLDTYFTL; listed as Homo sapiens) [compound 143]")
"“+++” (≥50 = +++)"
>>> endpoint_result("314 (LMKDCEAEV; listed as Homo sapiens) [compound 314]")
"“+++” (≥50 = +++)"
>>> endpoint_result("331 (VLWELAHLPTL; listed as Homo sapiens) [compound 331]")
"“+++” (≥50 = +++)"
>>> endpoint_result("354 (FIMDDPAGNSYL; listed as Homo sapiens) [compound 354]")
"“+++” (≥50 = +++)"
>>> endpoint_result("232 (FMHQIIDQV; listed as Homo sapiens) [compound 232]")
"“++++” (≥75% = ++++)"
>>> endpoint_result("242 (ILLGIQELL; listed as Homo sapiens) [compound 242]")
"“+++” (≥50 = +++)"
>>> endpoint_result("161 (SMDDGMINV; listed as Homo sapiens) [compound 161]")
"“+++” (≥50 = +++)"
>>> endpoint_result("350 (ALEDRVWEL; listed as Homo sapiens) [compound 350]")
"“+++” (≥50 = +++)"
>>> endpoint_result("195 (YLGGFALSV; listed as Homo sapiens) [compound 195]")
"“++++” (≥75% = ++++)"
>>> endpoint_result("112 (KTLDVDATYEI; listed as Homo sapiens) [compound 112]")
"“+++” (≥50 = +++)"
>>> endpoint_result("145 (SALDTITTV; listed as Homo sapiens) [compound 145]")
"“+++” (≥50 = +++)"
